measured_on: HLA-B*07:02
experimental_details: IEDB peptide-MHC binding, purified MHC/direct/fluorescence; filed as Kd, often an IC50 or EC50 that approximates it; bounds were set here for any values at or beyond the usual limits of such assays
experimental_parameters: source organism: Yersinia pestis
measured_metric: Kd

entry_sequence=TMPELAWAV measured_on=HLA-B*07:02 reported_measurement="≥ 20 µM"

----------
measured_on: HLA-A*02:01
experimental_details: IEDB peptide-MHC binding, purified MHC/direct/fluorescence; filed as Kd, often an IC50 or EC50 that approximates it; bounds were set here for any values at or beyond the usual limits of such assays
experimental_parameters: source organism: Pasteurella multocida
measured_metric: Kd (nM)

entry_sequence=LMAEDLANV measured_on=HLA-A*02:01 reported_measurement=47.2

----------
The reader will find reported pKd values listed item by item below.
measured_on: HLA-B*44:02
experimental_details: IEDB peptide-MHC binding, purified MHC/competitive/radioactivity; filed as Kd, often an IC50 or EC50 that approximates it; bounds were set here for any values at or beyond the usual limits of such assays
experimental_parameters: source organism: Mammarenavirus machupoense
pKd: −log10 of the molar value.
measured_metric: pKd

entry_sequence=DELGNILSTY reported_measurement=5.73
entry_sequence=EEPVSLLPLS reported_measurement=5.24
entry_sequence=EELSLMYEAL reported_measurement=5.75

----------
measured_on: HLA-A*31:01
experimental_details: IEDB peptide-MHC binding, purified MHC/competitive/radioactivity; filed as Kd, often an IC50 or EC50 that approximates it; bounds were set here for any values at or beyond the usual limits of such assays
experimental_parameters: source organism: Vaccinia virus Copenhagen
measured_metric: Kd (nM)

entry_sequence=NTFVNFNSVK reported_measurement=1670

----------
measured_on: HLA-B*14:02
experimental_details: IEDB peptide-MHC binding, purified MHC/competitive/fluorescence; bounds were set here for any values at or beyond the usual limits of such assays
experimental_parameters: source organism: Ateles geoffroyi
pIC50: −log10 of the molar value.
measured_metric: pIC50

entry_sequence=LPADPASVL measured_on=HLA-B*14:02 reported_measurement=4.84

----------
measured_on: HLA-A*03:01
experimental_details: IEDB peptide-MHC binding, purified MHC/competitive/fluorescence; filed as Kd, often an IC50 or EC50 that approximates it; bounds were set here for any values at or beyond the usual limits of such assays
experimental_parameters: source organism: Bacillus cereus ATCC 4342
measured_metric: Kd

entry_sequence=GLFWGGIWY measured_metric=Kd reported_measurement="≥ 20 µM"

----------
measured_on: HLA-B*35:01
experimental_details: IEDB peptide-MHC binding, purified MHC/competitive/radioactivity; filed as Kd, often an IC50 or EC50 that approximates it; bounds were set here for any values at or beyond the usual limits of such assays
experimental_parameters: source organism: Dengue virus 4 Philippines/H241/1956
measured_metric: Kd (nM)

entry_sequence=MPLVMAWRTI result_unit=nM comparator== reported_measurement=705
entry_sequence=YKVASAGISY result_unit=nM comparator== reported_measurement=70.4
entry_sequence=RPLSEKEENM result_unit=nM comparator=≥ reported_measurement=30100
entry_sequence=LPESLETLM result_unit=nM comparator== reported_measurement=470
entry_sequence=MALKDFKEF result_unit=nM comparator== reported_measurement=77

----------
The reader will find reported pKd values listed item by item below.
measured_on: HLA-B*58:01
experimental_details: IEDB peptide-MHC binding, purified MHC/direct/fluorescence; filed as Kd, often an IC50 or EC50 that approximates it; bounds were set here for any values at or beyond the usual limits of such assays
experimental_parameters: source organism: Camelpox virus M-96
pKd: −log10 of the molar value.
measured_metric: pKd

entry_sequence=KYFDDVTAF measured_metric=pKd reported_measurement="≤ 4.70"
entry_sequence=NYFNRMFHF measured_metric=pKd reported_measurement="≤ 4.70"
entry_sequence=SQIETGTPF measured_metric=pKd reported_measurement="≤ 4.70"
entry_sequence=KSALNDFDF measured_metric=pKd reported_measurement=7.57
